Test: E-2.3 inhalative, oral and intravenous single doses in healthy male subjects: plasma concentrations and lung deposition
Assay type: in vivo, human
Details: male, human, plasma, inhaled, 1000 μg, healthy male subjects, single 1000 μg inhale + Charcoal Block, N = 16; 1 h after dose; read-out: Geometric mean of plasma concentrations
property name: concentration at 1 h (ng/mL)
Enter your answer as a number in ng/mL; do not include the unit.

Q: Dear colleague, I am looking for the recorded concentration at 1 h of the following molecule: O=C(O)c1ccc(CCN(CCc2ccccc2OCc2ccc(-c3ccc(C(F)(F)F)cc3)cc2Cl)[C@H]2CCCc3nc(C(=O)O)ccc32)cc1 [example 4]
Result: 0.662

---

Test: E-2.3 inhalative, oral and intravenous single doses in healthy male subjects: plasma concentrations and lung deposition
Assay type: in vivo, human
Conditions: male, human, plasma, iv, 100 μg, healthy male subjects, 100 μg IV infusion over 2 h, N = 15; 2.75 h after dose; read-out: Geometric mean of plasma concentrations
property name: concentration at 2.75 h (ng/mL)
Enter your answer as a number in ng/mL; do not include the unit.

Q: Dear colleague, I am looking for the recorded concentration at 2.75 h of the following compound: O=C(O)c1ccc(CCN(CCc2ccccc2OCc2ccc(-c3ccc(C(F)(F)F)cc3)cc2Cl)[C@H]2CCCc3nc(C(=O)O)ccc32)cc1
Result: 0.264

---

Assay: E-2.3 inhalative, oral and intravenous single doses in healthy male subjects: plasma concentrations and lung deposition
Assay type: in vivo, human
Conditions: male, human, plasma, inhaled, 1000 μg, healthy male subjects, single 1000 μg inhale + Charcoal Block, N = 16; 24 h after dose; read-out: Geometric mean of plasma concentrations
property name: concentration at 24 h (ng/mL)
Enter your answer as a number in ng/mL; do not include the unit.

Q: Dear colleague, I am looking for the recorded concentration at 24 h of the following compound: O=C(O)c1ccc(CCN(CCc2ccccc2OCc2ccc(-c3ccc(C(F)(F)F)cc3)cc2Cl)[C@H]2CCCc3nc(C(=O)O)ccc32)cc1 [example 4]
Result: 0.0931

---

Test: Protein binding via Transil assay, minipig plasma
Type: in vitro ADME
Settings: read-out: plasma fu (fraction unbound)
property name: fraction unbound
# output: bare number, no unit

Q: Dear colleague, I am looking for the recorded fraction unbound of the following molecule: O=C(O)c1ccc(CCN(CCc2ccccc2OCc2ccc(-c3ccc(C(F)(F)F)cc3)cc2Cl)[C@H]2CCCc3nc(C(=O)O)ccc32)cc1
Result: 0.00348

---

Assay: E-2.3 inhalative, oral and intravenous single doses in healthy male subjects: plasma concentrations and lung deposition
Assay type: in vivo, human
Details: male, human, plasma, iv, 100 μg, healthy male subjects, 100 μg IV infusion over 2 h, N = 15; 0.25 h after dose; read-out: Geometric mean of plasma concentrations
property name: concentration at 0.25 h (ng/mL)
Enter your answer as a number in ng/mL; do not include the unit.

Q: Dear colleague, I am looking for the recorded concentration at 0.25 h of the following compound: O=C(O)c1ccc(CCN(CCc2ccccc2OCc2ccc(-c3ccc(C(F)(F)F)cc3)cc2Cl)[C@H]2CCCc3nc(C(=O)O)ccc32)cc1
Result: 1.76

---

Experiment: E-2.3 inhalative, oral and intravenous single doses in healthy male subjects: plasma concentrations and lung deposition
Type: in vivo, human
Settings: male, human, plasma, iv, 100 μg, healthy male subjects, 100 μg IV infusion over 2 h, N = 15; 0.5 h after dose; read-out: Geometric mean of plasma concentrations
Description: E-2.3 Inhalative, Oral and Intravenous Administration of Single Doses of sGC an Activator in Healthy Male Subjects—Lung Deposition Healthy white male subjects, aged 18 to 45 years with a body mass index (BMI) above/equal 18.5 and below/equal 29.9 kg/m^2 were treated in a clinical phase I study with a single inhaled dose of 1000 μg (nominal dose), a single inhaled dose of 1000 μg (nominal dose)+charcoal block, a single oral dose of 1000 μg and a single infusion over 2 h of 100 μg of example 4. […]
property name: concentration at 0.5 h (ng/mL)
Enter your answer as a number in ng/mL; do not include the unit.

Q: Dear colleague, I am looking for the recorded concentration at 0.5 h of the following molecule: O=C(O)c1ccc(CCN(CCc2ccccc2OCc2ccc(-c3ccc(C(F)(F)F)cc3)cc2Cl)[C@H]2CCCc3nc(C(=O)O)ccc32)cc1
Result: 2.52
